measured-target: T1, human CD22, full length, on CHO-K1-human CD22 2C4 cells (human, UniProt P20273 20-847)
T1 construct: Full-length human CD22 (NCBI NP_001762.2) stably transfected into CHO-K1
T1 sequence: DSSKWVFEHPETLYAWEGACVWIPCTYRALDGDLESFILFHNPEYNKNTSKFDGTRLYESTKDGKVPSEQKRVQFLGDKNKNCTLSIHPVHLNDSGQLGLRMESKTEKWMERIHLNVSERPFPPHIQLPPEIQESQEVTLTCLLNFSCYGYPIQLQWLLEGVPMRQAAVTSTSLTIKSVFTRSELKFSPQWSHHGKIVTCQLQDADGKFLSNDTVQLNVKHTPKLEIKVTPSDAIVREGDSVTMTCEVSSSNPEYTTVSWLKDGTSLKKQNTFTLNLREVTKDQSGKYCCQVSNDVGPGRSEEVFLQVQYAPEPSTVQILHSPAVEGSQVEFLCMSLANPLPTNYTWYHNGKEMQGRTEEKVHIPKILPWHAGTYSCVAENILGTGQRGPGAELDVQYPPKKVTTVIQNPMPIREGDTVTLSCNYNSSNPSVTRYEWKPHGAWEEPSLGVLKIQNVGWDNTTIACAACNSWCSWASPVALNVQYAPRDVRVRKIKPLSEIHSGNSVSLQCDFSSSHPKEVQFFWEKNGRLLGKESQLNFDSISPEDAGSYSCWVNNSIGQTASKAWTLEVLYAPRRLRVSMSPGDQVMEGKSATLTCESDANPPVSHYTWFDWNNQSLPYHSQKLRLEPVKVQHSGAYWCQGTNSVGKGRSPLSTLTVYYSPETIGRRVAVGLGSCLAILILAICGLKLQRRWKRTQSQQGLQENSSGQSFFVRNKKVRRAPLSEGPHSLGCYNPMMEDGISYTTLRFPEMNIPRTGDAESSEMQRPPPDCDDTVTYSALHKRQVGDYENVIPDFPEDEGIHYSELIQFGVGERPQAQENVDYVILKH
assay-notes: FACS, CHO-K1-human CD22 2C4 cells

# binder, unit-abbrev, Maximum mean fluorescence intensity
records = [
    ("F2.70.2 human-murine chimeric antibody (antibody, human IgG1, lambda, V domains shown, Chimeric, human IgG1 / lambda) VH: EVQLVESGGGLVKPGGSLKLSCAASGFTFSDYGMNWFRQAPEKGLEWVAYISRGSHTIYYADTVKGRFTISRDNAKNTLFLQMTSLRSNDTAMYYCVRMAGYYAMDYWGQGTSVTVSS VL: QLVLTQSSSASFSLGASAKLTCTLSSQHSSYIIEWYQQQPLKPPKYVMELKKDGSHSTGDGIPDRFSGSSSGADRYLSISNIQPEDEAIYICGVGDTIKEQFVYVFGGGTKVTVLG", "MFI", 39000),
    ("F2.151.13 human-murine chimeric antibody (antibody, human IgG1, lambda, V domains shown, Chimeric, human IgG1 / lambda) VH: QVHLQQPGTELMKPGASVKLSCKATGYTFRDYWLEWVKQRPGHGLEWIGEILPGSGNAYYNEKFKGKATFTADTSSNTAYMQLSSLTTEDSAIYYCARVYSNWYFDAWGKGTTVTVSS VL: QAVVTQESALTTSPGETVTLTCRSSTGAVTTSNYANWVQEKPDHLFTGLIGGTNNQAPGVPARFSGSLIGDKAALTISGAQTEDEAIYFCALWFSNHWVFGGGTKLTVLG", "MFI", 37000),
    ("F2.121.9 human-murine chimeric antibody (antibody, human IgG1, lambda, V domains shown, Chimeric, human IgG1 / lambda) VH: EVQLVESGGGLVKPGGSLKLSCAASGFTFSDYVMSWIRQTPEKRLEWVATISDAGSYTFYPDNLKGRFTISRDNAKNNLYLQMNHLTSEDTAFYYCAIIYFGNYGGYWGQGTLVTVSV VL: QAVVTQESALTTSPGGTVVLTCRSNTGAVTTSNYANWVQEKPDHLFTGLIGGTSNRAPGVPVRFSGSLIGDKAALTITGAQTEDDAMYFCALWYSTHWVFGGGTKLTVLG", "MFI", 39700),
]

Origin of the recorded values: patent US20240084003A1
